// reported glycan array binding signal (z-score) per item
target: GlcNAc(b1-2)[GlcNAc(b1-6)]Man(a1-6)[GlcNAc(b1-2)Man(a1-3)]Man(b1-4)GlcNAc(b1-4)GlcNAc; assay: glycan array binding signal (z-score within array); higher = stronger binding; conditions: glycan notation: IUPAC condensed, linker removed
This excerpt belongs to a sample that is enriched for the strongest signals.

binder | glycan array binding signal (z-score)
Epa2 (Candida glabrata) (protein) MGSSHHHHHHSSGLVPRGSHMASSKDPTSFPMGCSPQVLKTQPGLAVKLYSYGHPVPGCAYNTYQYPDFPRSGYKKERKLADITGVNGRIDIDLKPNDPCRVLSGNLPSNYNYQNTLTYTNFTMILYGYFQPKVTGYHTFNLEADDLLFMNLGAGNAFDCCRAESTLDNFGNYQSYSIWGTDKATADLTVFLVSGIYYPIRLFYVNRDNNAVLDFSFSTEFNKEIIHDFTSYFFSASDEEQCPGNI | -0.896
Epa3to1 (Candida glabrata) (protein) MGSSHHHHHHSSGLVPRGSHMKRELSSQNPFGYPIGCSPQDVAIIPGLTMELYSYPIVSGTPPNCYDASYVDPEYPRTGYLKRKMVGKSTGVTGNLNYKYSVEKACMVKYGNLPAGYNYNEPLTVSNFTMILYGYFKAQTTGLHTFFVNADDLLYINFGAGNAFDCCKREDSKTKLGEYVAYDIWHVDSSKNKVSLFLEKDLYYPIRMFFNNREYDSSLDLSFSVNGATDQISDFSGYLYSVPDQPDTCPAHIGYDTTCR | -0.435
Epa1to9 (Candida glabrata) (protein) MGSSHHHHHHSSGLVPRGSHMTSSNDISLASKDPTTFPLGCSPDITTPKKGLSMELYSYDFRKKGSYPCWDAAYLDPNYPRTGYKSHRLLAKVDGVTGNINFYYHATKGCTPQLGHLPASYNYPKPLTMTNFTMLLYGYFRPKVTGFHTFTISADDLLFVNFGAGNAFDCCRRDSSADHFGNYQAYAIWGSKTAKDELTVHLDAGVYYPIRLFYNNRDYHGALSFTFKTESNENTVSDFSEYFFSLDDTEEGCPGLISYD | -0.344
